# Protocol description: Competitive inhibition of almond beta-glucosidase using beta-D-glycopyranoside as substrate after 10 to 30 mins by Lineweaver-Burk plot analysis
# Design: species or system Prunus dulcis
Assign log10 Ki to each entry below.
The common logarithm of Ki in µM is what is listed.

Reference set, count: 3
>  <Compound string>
OCCCCCCCCCCCCCCCC/N=C1/SC[C@@H]2[C@@H](O)[C@H](O)CCN12

>  <Attribute measured>
log10 Ki

>  <Reading>
2.64

$$$$
>  <Compound string>
OCCCCCCCCCCCCCCCC/N=C1/SC[C@@H]2[C@H](O)[C@H](O)CN12

>  <Attribute measured>
log10 Ki

>  <Reading>
0.48

$$$$
>  <Compound string>
CCCCCCCC/N=C1/SC[C@@H]2[C@@H](O)[C@H](O)CCN12

>  <Attribute measured>
log10 Ki

>  <Reading>
1.41

$$$$

For each listed entry, give its log10 Ki.
1. CCCCCCCC/N=C1/SC[C@H]2[C@H](O)[C@@H](O)CN12
2. CCCCNC(=S)N1C[C@H](O)[C@@H](O)[C@@H]1CO
3. CCCCNC(=S)N1C[C@@H](O)[C@H](O)[C@H]1CO
4. CCCCCCCCNC(=S)N1CC[C@@H](O)[C@H](O)[C@H]1CO
5. OCCCCCCCCCCCCCCCC/N=C1/SC[C@H]2[C@H](O)[C@@H](O)CN12
6. CCCC/N=C1/SC[C@H]2[C@H](O)[C@@H](O)CN12
7. OCCCCCCCCCCCCCCCCNC(=S)N1C[C@@H](O)[C@H](O)[C@H]1CO
8. CCCC/N=C1/SC[C@@H]2[C@@H](O)[C@H](O)CCN12

[0.56, 1.88, 1.40, 2.76, 1.98, 0.28, 2.16, 1.15]
